# testTarget: T1, rat α-CGRP (1-37) (rat, C-terminal amide; N-terminal biotin when captured on the SA chip)
# T1 construct: also called rat α (1-37); α-rat
# T1 peptide: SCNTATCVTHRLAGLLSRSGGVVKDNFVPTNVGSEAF
# testProtocol: Biacore, 37°C, Fab over CGRP on SA chip
# Protocol: Biacore assay for affinity determination. […] All Biacore assays were conducted in HBS-EP running buffer (10 mM HEPES pH 7.4, 150 mM NaCl, 3 mM EDTA, 0.005% v/v polysorbate P20). CGRP surfaces were prepared by diluting the N-biotinylated CGRP to a concentration of less than 0.001 mg/mL into HBS-EP buffer and injecting it across the SA sensor chip using variable contact times. […] Samples were typically injected for 1 minute at 100 μL/min and dissociation times of at least 10 minutes were allowed. […]
The following binders are shown together with reported koff values.
observable: koff (s⁻¹)

binder	observable	valueReported
G1 variant M5 Fab (Fab, V domains shown, Fab; constant domains as m1) VH: EVQLVESGGGLVQPGGSLRLSCAASGFTFSNYWISWVRQAPGKGLEWVAEIRSESDASATHYAEAVKGRFTISRDNAKNSLYLQMNSLRAEDTAVYYCAYYFDYGLAIQNYWGQGTLVTVSS VL: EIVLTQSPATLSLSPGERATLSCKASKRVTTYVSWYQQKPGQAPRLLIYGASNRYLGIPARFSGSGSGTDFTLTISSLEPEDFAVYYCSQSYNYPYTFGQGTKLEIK	koff	0.000735
G1 variant M67 Fab (Fab, V domains shown, Fab; constant domains as m1; printed L561 read as L56I) VH: EVQLVESGGGLVQPGGSLRLSCAASGFTFSNYWISWVRQAPGKGLEWVAEIRSKSDFSATHYAEAVKGRFTISRDNAKNSLYLQMNSLRAEDTAVYYCTVYFDYGLAIQNYWGQGTLVTVSS VL: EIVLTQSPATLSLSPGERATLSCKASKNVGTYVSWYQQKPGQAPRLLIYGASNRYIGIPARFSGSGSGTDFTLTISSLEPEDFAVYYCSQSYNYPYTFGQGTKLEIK	koff	0.00171
G1 variant M41 Fab (Fab, V domains shown, Fab; constant domains as m1) VH: EVQLVESGGGLVQPGGSLRLSCAASGFTFSNYWISWVRQAPGKGLEWVAEIRSKSDNSATHYADAVKGRFTISRDNAKNSLYLQMNSLRAEDTAVYYCTVYFDYGLAIQNYWGQGTLVTVSS VL: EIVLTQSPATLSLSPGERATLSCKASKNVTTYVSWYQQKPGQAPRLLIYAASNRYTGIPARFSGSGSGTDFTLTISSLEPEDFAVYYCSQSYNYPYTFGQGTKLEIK	koff	0.00453
